Tested on: T lymphocyte cell line Jurkat E6-1
Assay: Cytotoxicity experiment (CCK-8, relative cell survival)
Format: cell-based
Conditions: 10 μM; 24 hours; untreated cells = 100%
Procedure: To evaluate the cytotoxicity of the compound according to the present invention, the following experiment was conducted. The T lymphocyte cell line Jurkat E6-1, purchased from the Korean Cell Line Bank, was cultured in RPMI-1640 medium comprising 10% FBS, 100 U/mL penicillin, and 100 μg/mL streptomycin. […] Absorbance was then measured at 450 nm to determine the relative cell survival rate compared to untreated cells, as shown in Table 4. […]
Recorded Relative cell survival rate (%) by entry
Quick note: give the figure in %, leave out the unit.

As a guide, the following entries are already answered.
[[record]]
compound = "CCCCCCCCCCCCNC(=O)CNC(=O)c1ccccc1Cl"
readout = "Relative cell survival rate (%)"
output_unit = "%"
experimental_value = 92

[[record]]
compound = "CCCCCCCCCCCCNC(=O)c1ccccc1Oc1ccccc1"
readout = "Relative cell survival rate (%)"
output_unit = "%"
experimental_value = 96


Short answer for C=Cc1ccccc1C(=O)NCCCCCCCCCCCC : Relative cell survival rate (%) was 108

Short answer for O=C(NCCCCCCCCCC1CO1)c1ccccc1Br (stereo not drawn) : Relative cell survival rate (%) was 106

Short answer for CCCCCCCCCCCCNC(=O)c1c(F)cccc1[N+](=O)[O-] : Relative cell survival rate (%) was 91

Short answer for CCCCCCCCCCCCNC(=O)c1ccccc1Nc1cccc(C)c1C : Relative cell survival rate (%) was 99

Short answer for O=C(NCCCCCCCCCCCCO)c1ccccc1Br : Relative cell survival rate (%) was 102

Short answer for CCCCCCCCCCCCNC(=O)c1ccccc1NC : Relative cell survival rate (%) was 87

Short answer for CCCCNC(=O)c1ccccc1F : Relative cell survival rate (%) was 103
